- MEASUREMENT TARGET: EGFR (form used in the assay not stated) (human, UniProt P00533 25-645, limits assumed)
- PROTOCOL TEXT: ELISA, NEM conjugate, 500 nM
Reported binding relative to P54AR4-83v2 parent values are given for each entry in this list.
Numbers only; they are read as ratio.

Illustrative cases are given below, each with its answer.
| BINDER | NUMERIC RESULT |
| --- | --- |
| P54AR4-83v2 K5C, NEM conjugate (designed binder, not shown: small tags and cut ends, N-ethyl maleimide (NEM) on Cys 5, also called KSC) LPAPCNLVVSEVTEDSARLSWDDPWAFYESFLIQYQESEKVGEAIVLTVPGSERSYDLTGLKPGTEYTVSIYGVHNVYKDTNMRGLPLSAIFTT | 0.92 |
| P54AR4-83v2 D80C, NEM conjugate (designed binder, not shown: small tags and cut ends, N-ethyl maleimide (NEM) on Cys 80) LPAPKNLVVSEVTEDSARLSWDDPWAFYESFLIQYQESEKVGEAIVLTVPGSERSYDLTGLKPGTEYTVSIYGVHNVYKCTNMRGLPLSAIFTT | 0.91 |
| P54AR4-83v2 G42C, NEM conjugate (designed binder, not shown: small tags and cut ends, N-ethyl maleimide (NEM) on Cys 42) LPAPKNLVVSEVTEDSARLSWDDPWAFYESFLIQYQESEKVCEAIVLTVPGSERSYDLTGLKPGTEYTVSIYGVHNVYKDTNMRGLPLSAIFTT | 0.9 |

Switching to the query record.
Request: What does the record list as binding relative to P54AR4-83v2 parent for P54AR4-83v2 Q34C, NEM conjugate (designed binder, not shown: small tags and cut ends, N-ethyl maleimide (NEM) on Cys 34) LPAPKNLVVSEVTEDSARLSWDDPWAFYESFLICYQESEKVGEAIVLTVPGSERSYDLTGLKPGTEYTVSIYGVHNVYKDTNMRGLPLSAIFTT ?
Response: 0.94

Recorded values, source patent US20210301025A1.
